The following binders are listed with their measured Kd values.
- System: T1, human CD154, soluble antigen (human, UniProt P29965 116-261, limits assumed)
- T1 construct: KinExA uses 'soluble antigen'; also called CD40 ligand; CD40L
- T1 sequence (looked up): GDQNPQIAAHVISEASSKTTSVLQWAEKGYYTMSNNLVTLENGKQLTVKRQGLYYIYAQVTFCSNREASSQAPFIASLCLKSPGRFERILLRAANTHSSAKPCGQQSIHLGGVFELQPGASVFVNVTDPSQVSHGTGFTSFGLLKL
- Assay Overview: KinExA solution-phase equilibrium, Fab with soluble antigen
Express it in nM; write the number only.

Use these answered entries as a reference point.
# Binder, Units Label, Kd
records = [
    ("5c8 Fab Mutant #3 (light chain Y36W) (Fab, V domains shown) VH: QVQLVQSGAEVVKPGASVKLSCKASGYIFTSYYMYWVKQAPGQGLEWIGEINPSNGDTNFNEKFKSKATLTVDKSASTAYMELSSLRSEDTAVYYCTRSDGRNDMDSWGQGTLVTVSS VL: DIVLTQSPATLSVSPGERATISCRASQRVSSSTYSWMHWYQQKPGQPPKLLIKYASNLESGVPARFSGSGSGTDFTLTISSVEPEDFATYYCQHSWEIPPTFGGGTKLEIK", "nM", 0.42),
    ("5c8 Fab Mutant #14 (light chain S26D/Q27E) (Fab, V domains shown, also called double mutant) VH: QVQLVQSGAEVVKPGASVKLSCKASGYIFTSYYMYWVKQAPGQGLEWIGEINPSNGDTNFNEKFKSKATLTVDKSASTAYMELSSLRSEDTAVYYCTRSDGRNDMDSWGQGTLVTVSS VL: DIVLTQSPATLSVSPGERATISCRADERVSSSTYSYMHWYQQKPGQPPKLLIKYASNLESGVPARFSGSGSGTDFTLTISSVEPEDFATYYCQHSWEIPPTFGGGTKLEIK", "nM", 0.041),
]

Which Kd value belongs to 5c8 Fab Mutant #23 (heavy Y33W; light S26D/Q27E) (Fab, V domains shown) VH: QVQLVQSGAEVVKPGASVKLSCKASGYIFTSYWMYWVKQAPGQGLEWIGEINPSNGDTNFNEKFKSKATLTVDKSASTAYMELSSLRSEDTAVYYCTRSDGRNDMDSWGQGTLVTVSS VL: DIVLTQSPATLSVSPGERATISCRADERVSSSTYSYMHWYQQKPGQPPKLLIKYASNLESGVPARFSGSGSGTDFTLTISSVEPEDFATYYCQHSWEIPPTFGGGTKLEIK ? 0.053

Values from patent US20080305116A1
